# tgt: UniProt:P23977
# Sequence (P23977 whole entry): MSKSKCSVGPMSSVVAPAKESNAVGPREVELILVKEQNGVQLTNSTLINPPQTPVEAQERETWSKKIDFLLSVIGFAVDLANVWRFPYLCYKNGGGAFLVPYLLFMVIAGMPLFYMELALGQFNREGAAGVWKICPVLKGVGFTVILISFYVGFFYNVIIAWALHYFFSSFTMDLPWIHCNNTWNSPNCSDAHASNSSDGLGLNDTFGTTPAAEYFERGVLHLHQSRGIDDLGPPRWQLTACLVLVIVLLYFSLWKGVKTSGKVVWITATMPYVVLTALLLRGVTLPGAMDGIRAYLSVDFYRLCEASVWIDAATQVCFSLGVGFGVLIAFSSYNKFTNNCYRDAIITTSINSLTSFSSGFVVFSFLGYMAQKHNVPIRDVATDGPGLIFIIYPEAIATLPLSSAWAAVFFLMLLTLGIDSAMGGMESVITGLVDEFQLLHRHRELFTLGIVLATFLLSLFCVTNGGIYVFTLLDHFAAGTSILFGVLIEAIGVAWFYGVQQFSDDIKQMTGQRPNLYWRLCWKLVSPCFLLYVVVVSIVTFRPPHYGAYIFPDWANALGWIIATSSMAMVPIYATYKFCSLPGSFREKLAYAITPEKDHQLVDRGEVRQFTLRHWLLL
# measurement_description: Ability to inhibit high affinity reuptake of [3H]DA from dopamine transporter into nerve endings synaptosomes
Form field: pKi (one value per entry).
// pKi here means minus log10 of the molar concentration (mol/L)

Examples from the recorded data:
>  <compound>
O=C(OCC1C2CC3CCC1N3C/C2=C\c1cccc(Cl)c1)c1ccccc1 (configuration not stated)

>  <value_observed>
5.39

$$$$
>  <compound>
COC(=O)C1C2CC3CCC1N3C/C2=C\c1ccc(I)c(Cl)c1 (configuration not stated)

>  <value_observed>
5.50

$$$$
>  <compound>
CCC(=O)C1C2CC3CCC1N3C/C2=C\c1ccc(Cl)c(Cl)c1 (configuration not stated)

>  <value_observed>
5.16

$$$$
>  <compound>
COC(=O)C1C2CC3CCC1N3C/C2=C\c1cc2ccccc2c2ccccc12 (configuration not stated)

>  <value_observed>
5.79

$$$$
>  <compound>
COC(=O)C1C2CC3CCC1N3C/C2=C\c1cccc(Cl)c1 (configuration not stated)

>  <value_observed>
5.11

$$$$
>  <compound>
Clc1ccc(/C=C2\CN3C4CCC3C(/C=C\c3ccccc3)C2C4)cc1Cl (configuration not stated)

>  <value_observed>
5.68

$$$$

pKi measured on O=C(Oc1ccccc1)C1C2CC3CCC1N3C/C2=C\c1ccc(Cl)c(Cl)c1 (configuration not stated) = 5.35

pKi measured on O=C(OCC1C2CC3CCC1N3C/C2=C\c1ccc(Cl)c(Cl)c1)c1ccccc1 (configuration not stated) = 4.85

pKi measured on COC(=O)C1C2CC3CCC1N3C/C2=C\c1ccc(Cl)c(Cl)c1 (configuration not stated) = 5.72

pKi measured on COC(=O)C1C2CC3CCC1N3C/C2=C\c1ccc(I)cc1Cl (configuration not stated) = 5.18

pKi measured on COC(=O)C1C2CC3CCC1N3C/C2=C\c1ccc(C)cc1 (configuration not stated) = 6.19

pKi measured on COC(=O)C1C2CC3CCC1N3C/C2=C\c1ccc(Br)c(Cl)c1 (configuration not stated) = 5.27

pKi measured on COC(=O)C1C2CC3CCC1N3C/C2=C\c1ccccc1 (configuration not stated) = 6.32

pKi measured on CC(=O)OCC1C2CC3CCC1N3C/C2=C\c1ccc2ccccc2c1 (configuration not stated) = 6.19

pKi measured on COC(=O)C1C2CC3CCC1N3C/C2=C\c1ccc(F)c(F)c1 (configuration not stated) = 5.13

pKi measured on CC(=O)OCC1C2CC3CCC1N3C/C2=C\c1cccc(Cl)c1 (configuration not stated) = 5.22

pKi measured on CN(C)C(=O)C1C2CC3CCC1N3C/C2=C\c1ccc(Cl)c(Cl)c1 (configuration not stated) = 5.18

pKi measured on O=C(OCC1C2CC3CCC1N3C/C2=C\c1ccc(Cl)c(Cl)c1)c1ccc(I)cc1 (configuration not stated) = 4.75
